- System: NCI-H226 lung
- Method: NCI-60 one-dose screen, 48 h (100 = growth as untreated, 0 = no growth, -100 = all killed)
- Particulars: 10 µM unless noted
About 83,000 compounds went through this panel and 20% of them were active in at least one assay; those are over-represented in the sample as a whole.
// assign TRUE if growth falls strictly below 90%, else FALSE (ties count as FALSE)

Example results:
Compound | Label Class
NNc1ccc(Cl)cc1Cl | TRUE
CN1CCC(CN2c3ccccc3Sc3ccccc32)C1 (stereo not given) | FALSE
CCCCCCCCCCCC[n+]1ccc(CCCCCCCCC)cc1 | TRUE

Please let me know if CCCCCCCCCCCCSC(=N)N shows growth below 90%.
FALSE

And for Nc1cc(-c2ccccc2)ccc1O ?
FALSE

Then what about the compound O=[N+]([O-])c1ccc(Oc2ccccc2Cl)c([N+](=O)[O-])c1 ?
TRUE

Entry to check: O=Nc1ccc2ccccc2c1O
FALSE

Values were extracted from PubChem BioAssay (NCI).
